- Tested Target: Epidermal growth factor receptor (Homo sapiens) (UniProt P00533)
- Sequence (P00533 whole entry): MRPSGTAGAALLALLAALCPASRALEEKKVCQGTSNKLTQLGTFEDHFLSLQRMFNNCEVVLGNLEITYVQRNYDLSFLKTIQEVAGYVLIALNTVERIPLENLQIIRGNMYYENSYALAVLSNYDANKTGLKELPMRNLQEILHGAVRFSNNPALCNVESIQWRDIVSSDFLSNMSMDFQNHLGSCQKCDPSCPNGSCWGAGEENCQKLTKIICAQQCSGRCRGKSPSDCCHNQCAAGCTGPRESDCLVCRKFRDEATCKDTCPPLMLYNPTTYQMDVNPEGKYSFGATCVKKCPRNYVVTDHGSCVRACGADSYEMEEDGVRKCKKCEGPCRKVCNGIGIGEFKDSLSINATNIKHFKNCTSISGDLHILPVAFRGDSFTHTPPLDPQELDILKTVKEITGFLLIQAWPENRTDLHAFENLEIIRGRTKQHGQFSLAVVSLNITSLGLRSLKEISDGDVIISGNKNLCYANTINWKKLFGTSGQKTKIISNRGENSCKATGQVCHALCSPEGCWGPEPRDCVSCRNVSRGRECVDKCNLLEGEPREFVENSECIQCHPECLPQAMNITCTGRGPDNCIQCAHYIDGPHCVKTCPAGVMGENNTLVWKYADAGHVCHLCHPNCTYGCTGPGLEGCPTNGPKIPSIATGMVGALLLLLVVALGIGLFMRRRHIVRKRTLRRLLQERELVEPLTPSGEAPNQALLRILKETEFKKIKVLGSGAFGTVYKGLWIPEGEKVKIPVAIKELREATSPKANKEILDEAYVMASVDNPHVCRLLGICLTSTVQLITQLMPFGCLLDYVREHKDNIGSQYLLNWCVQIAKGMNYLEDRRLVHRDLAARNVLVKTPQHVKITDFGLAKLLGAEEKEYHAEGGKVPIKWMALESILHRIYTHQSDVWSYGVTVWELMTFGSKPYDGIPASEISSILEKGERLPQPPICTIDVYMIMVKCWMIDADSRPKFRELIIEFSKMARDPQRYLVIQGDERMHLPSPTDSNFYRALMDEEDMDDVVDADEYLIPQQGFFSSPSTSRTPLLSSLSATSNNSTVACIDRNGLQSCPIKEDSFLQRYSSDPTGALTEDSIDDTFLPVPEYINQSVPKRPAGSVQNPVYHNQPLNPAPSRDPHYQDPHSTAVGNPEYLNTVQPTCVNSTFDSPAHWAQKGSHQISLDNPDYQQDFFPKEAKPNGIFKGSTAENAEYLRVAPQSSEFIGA
- Experimental Protocol: Inhibition of human recombinant EGF receptor dimerization expressed in A431 cells at 10 uM after 10 mins by immunoblotting analysis relative to control
- Format: cell-based
- Particulars: A-431
The source made the active and inactive calls. The calls are words filed in the database; no cut-off is given here. Where a SMILES comes first, the peptide text is derived from it.
Observable: inhibition

CSCC[C@@H]1NC(=O)[C@H](CCC(N)=O)NC(=O)[C@H](Cc2ccc(O)cc2)NC(=O)[C@H]([C@@H](C)O)NC(=O)[C@H]([C@@H](C)O)NC(=O)[C@@H]2CCCN2C(=O)[C@H](CC(N)=O)NC(=O)[C@H](Cc2ccc(O)cc2)NC(=O)[C@@H](N)CSSC[C@@H](C(=O)N[C@H](C(=O)O)C(C)C)NC1=O (HELM PEPTIDE1{C.Y.N.P.T.T.Y.Q.M.C.V}$PEPTIDE1,PEPTIDE1,1:R3-10:R3$$$V2.0) ... inactive
CSCC[C@@H]1NC(=O)[C@H](CCC(N)=O)NC(=O)[C@H](Cc2ccc(O)cc2)NC(=O)[C@H]([C@@H](C)O)NC(=O)[C@H]([C@@H](C)O)NC(=O)[C@@H]2CCCN2C(=O)[C@H](CC(N)=O)NC(=O)[C@H](Cc2ccc(O)cc2)NC(=O)[C@@H](N)CSSC[C@@H](C(=O)N[C@H](C(=O)N[C@@H](CC(N)=O)C(=O)O)C(C)C)NC1=O (HELM PEPTIDE1{C.Y.N.P.T.T.Y.Q.M.C.V.N}$PEPTIDE1,PEPTIDE1,1:R3-10:R3$$$V2.0) ... inactive
